Experiment: in vivo
Details: male, SD, rat, po, 4 mg/kg
measurement name: half-life (h)

                                   compound  measurement_name  value_observed
0  COc1ccc(-c2ccc3ncc4c(c3n2)N(C2CCN(C(=O)[C@@H](C)O)CC2)C(=O)N(C)C4)cn1 [Compound 86]         half-life            1.04

---

This listing pairs compounds with measured Tmax.
Experiment: In vivo pharmacokinetics in rats, gavage (PO)
Conditions: male, SD, rat, plasma, 4 mg/kg
measurement name: Tmax (h)

In [3]: df
Out[3]:
                                   compound  result_units  value_observed
0  Cn1c(=O)n(-c2ccc(C(C)(C)C#N)cc2)c2c3cc(-c4cnc5ccccc5c4)ccc3ncc21 [BEZ-235, reference compound]             h            2.83
1  CN1Cc2cnc3ccc(-c4cnc(N)nc4)nc3c2N(c2cccc(C(F)(F)F)c2)C1=O             h             0.5
2  CC(=O)Nc1ccc(-c2ccc3ncc4c(c3n2)N(c2cccc(C(F)(F)F)c2)C(=O)N(C)C4)cn1             h             0.5
3  COc1ccc(-c2ccc3ncc4c(c3c2)n(-c2ccc(N3CCNCC3)c(C(F)(F)F)c2)c(=O)n4C)cn1 [BGT-226, reference compound]             h               6

---

Target: PI3Kα (Homo sapiens (Human), UniProt P42336)
Sequence (P42336 whole entry): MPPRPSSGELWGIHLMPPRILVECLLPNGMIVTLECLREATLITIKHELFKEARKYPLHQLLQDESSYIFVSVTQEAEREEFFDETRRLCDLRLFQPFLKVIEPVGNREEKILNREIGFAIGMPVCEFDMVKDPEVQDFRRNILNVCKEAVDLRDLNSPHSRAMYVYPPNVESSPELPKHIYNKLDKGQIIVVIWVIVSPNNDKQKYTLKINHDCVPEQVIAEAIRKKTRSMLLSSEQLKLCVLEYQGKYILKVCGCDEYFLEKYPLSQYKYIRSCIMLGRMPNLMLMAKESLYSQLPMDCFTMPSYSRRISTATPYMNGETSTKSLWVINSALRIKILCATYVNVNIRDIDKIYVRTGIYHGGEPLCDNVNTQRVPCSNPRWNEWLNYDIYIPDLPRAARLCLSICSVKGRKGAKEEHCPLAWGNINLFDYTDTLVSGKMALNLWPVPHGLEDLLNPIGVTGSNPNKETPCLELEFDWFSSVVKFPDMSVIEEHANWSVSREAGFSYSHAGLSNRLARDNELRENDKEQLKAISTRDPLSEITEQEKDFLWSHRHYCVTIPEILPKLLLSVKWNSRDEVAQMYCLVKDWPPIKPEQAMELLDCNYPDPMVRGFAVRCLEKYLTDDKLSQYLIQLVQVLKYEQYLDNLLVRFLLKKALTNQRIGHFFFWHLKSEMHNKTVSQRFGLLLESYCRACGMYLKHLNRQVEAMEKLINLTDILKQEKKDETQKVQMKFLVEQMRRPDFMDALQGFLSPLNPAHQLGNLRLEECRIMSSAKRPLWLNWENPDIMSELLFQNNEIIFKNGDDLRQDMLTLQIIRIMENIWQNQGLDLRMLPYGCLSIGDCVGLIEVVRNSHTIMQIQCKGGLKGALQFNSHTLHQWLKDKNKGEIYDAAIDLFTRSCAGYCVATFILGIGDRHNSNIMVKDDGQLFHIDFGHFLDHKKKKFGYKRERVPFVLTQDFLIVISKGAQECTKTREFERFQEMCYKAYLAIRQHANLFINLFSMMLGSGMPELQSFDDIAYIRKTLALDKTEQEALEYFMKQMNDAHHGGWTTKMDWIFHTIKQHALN
Sequence (P27986 whole entry partner): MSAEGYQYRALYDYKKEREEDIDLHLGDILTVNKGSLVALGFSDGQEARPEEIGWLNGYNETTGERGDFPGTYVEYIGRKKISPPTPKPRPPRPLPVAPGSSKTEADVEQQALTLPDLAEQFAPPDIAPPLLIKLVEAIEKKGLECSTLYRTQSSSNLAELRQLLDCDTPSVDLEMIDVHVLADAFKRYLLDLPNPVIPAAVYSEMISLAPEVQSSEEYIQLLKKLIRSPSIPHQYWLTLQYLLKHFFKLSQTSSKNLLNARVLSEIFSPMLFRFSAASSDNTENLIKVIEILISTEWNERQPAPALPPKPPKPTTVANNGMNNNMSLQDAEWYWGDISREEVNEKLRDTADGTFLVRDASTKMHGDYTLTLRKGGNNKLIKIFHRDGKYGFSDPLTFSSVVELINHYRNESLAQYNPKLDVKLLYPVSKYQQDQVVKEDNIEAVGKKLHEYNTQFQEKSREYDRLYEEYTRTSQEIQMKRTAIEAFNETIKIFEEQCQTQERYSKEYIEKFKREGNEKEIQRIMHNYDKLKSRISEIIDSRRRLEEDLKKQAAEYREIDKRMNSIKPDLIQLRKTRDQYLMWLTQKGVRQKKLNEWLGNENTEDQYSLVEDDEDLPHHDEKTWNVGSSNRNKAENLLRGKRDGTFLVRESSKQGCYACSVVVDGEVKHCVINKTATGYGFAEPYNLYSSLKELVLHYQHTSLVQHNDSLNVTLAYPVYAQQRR
Test: biochemical
Format: binding
pIC50: −log10 of the molar value.
This listing pairs compounds with measured pIC50.
measurement name: pIC50

>>> print(df.to_string())
                  compound_structure_string  value_observed
0  COc1ccc(-c2ccc3ncc4c(c3n2)N(C2CCNCC2)C(=O)N(C)C4)cn1            6.94
1  COc1ccc(-c2ccc3ncc4c(c3n2)N(C2CCN(C(=O)[C@@H](C)O)CC2)C(=O)N(C)C4)cn1            8.01

---

Assay: In vivo pharmacokinetics in rats, intravenous bolus injection (IV)
Conditions: rats, IV, 2 mg/kg
This listing pairs molecules with measured Cl_obs.
measurement name: Cl_obs (L/h/kg)

>>> df
                                   molecule  measurement_name  result_units  value_observed
0  CN1Cc2cnc3ccc(-c4cnc(N)nc4)nc3c2N(c2cccc(C(F)(F)F)c2)C1=O            Cl_obs        L/h/kg            2.84
1  CC(=O)Nc1ccc(-c2ccc3ncc4c(c3n2)N(c2cccc(C(F)(F)F)c2)C(=O)N(C)C4)cn1            Cl_obs        L/h/kg            7.42
2  Cn1c(=O)n(-c2ccc(C(C)(C)C#N)cc2)c2c3cc(-c4cnc5ccccc5c4)ccc3ncc21 [BEZ-235, reference compound]            Cl_obs        L/h/kg            1.38
3  CN1Cc2cnc3ccc(-c4cnc5[nH]ccc5c4)nc3c2N(c2cccc(C(F)(F)F)c2)C1=O            Cl_obs        L/h/kg            5.57
4  COc1ccc(-c2ccc3ncc4c(c3c2)n(-c2ccc(N3CCNCC3)c(C(F)(F)F)c2)c(=O)n4C)cn1 [BGT-226, reference compound]            Cl_obs        L/h/kg             1.3
5  CN1Cc2cnc3ccc(-c4ccc(N)nc4)nc3c2N(c2cccc(C(F)(F)F)c2)C1=O            Cl_obs        L/h/kg            1.14
